Molecular target: FAK (Homo sapiens, UniProt Q05397)
Sequence (Q05397 whole entry): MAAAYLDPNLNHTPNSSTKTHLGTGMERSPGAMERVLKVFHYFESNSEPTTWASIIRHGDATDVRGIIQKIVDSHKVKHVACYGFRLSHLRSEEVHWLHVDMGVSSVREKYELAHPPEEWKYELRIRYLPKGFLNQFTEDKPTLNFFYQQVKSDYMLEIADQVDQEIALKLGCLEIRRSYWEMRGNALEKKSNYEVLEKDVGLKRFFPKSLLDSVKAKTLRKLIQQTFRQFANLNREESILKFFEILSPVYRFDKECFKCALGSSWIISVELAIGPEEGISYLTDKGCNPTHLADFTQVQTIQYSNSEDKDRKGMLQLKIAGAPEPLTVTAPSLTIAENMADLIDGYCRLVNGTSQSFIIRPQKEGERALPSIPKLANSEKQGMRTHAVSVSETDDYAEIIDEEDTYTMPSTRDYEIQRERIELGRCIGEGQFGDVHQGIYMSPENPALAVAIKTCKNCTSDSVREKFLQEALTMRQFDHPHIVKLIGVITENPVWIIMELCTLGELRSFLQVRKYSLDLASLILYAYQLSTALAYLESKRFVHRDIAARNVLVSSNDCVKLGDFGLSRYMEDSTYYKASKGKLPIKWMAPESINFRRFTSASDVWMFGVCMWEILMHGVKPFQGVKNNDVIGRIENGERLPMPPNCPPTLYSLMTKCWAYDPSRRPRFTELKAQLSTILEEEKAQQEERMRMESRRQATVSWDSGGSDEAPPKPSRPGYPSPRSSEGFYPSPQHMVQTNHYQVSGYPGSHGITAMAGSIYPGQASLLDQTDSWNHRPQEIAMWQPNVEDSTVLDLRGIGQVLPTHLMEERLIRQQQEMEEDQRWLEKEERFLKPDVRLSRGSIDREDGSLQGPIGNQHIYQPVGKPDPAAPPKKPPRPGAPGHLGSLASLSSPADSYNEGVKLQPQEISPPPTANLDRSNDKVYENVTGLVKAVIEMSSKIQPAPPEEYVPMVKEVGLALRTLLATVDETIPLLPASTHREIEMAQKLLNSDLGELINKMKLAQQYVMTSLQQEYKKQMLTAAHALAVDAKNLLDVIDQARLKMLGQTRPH
propertyMeasured: IC50

Query: Specify the recorded IC50 for O=C1CCCc2cc(-c3ccnc(Nc4ccccc4)n3)ccc2N1 [Compound 2a] , system: FAK (Homo sapiens, UniProt Q05397).
Reply: > 100 µM

---

Molecular target: CK2-alpha1 (Homo sapiens, UniProt P68400)
Sequence (P68400 whole entry): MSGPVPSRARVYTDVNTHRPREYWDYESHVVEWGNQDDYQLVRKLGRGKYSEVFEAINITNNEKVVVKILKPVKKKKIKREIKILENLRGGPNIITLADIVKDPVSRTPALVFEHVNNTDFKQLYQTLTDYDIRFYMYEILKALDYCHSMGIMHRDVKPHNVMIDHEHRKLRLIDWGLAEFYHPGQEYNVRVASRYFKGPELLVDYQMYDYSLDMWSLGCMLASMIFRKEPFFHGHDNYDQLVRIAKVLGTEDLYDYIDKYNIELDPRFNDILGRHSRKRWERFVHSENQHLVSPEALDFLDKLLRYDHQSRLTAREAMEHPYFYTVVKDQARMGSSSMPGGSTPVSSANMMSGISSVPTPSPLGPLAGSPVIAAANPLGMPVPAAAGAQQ
pIC50: −log10 of the molar value.
propertyMeasured: pIC50

Query: Identify measured pIC50 obtained with CK2-alpha1 (Homo sapiens, UniProt P68400) for O=C1CCCc2cc(-c3ccnc(Nc4ccccc4)n3)ccc2N1 [Compound 2a] .
Reply: < 4.00

---

Molecular target: Aurora-B (Homo sapiens)
Sequence (Q96GD4 whole entry): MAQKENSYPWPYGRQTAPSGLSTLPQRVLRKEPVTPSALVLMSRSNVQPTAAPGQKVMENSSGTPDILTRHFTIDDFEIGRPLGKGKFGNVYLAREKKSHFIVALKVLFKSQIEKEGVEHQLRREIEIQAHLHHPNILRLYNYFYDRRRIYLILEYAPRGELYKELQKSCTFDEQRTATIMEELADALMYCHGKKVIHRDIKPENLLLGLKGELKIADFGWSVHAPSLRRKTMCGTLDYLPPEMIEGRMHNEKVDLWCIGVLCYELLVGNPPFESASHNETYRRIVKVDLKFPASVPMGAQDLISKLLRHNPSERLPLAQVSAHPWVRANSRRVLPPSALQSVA
propertyMeasured: log10(IC50) (log10 of the value in µM)
Each number you see is log10 of IC50, and the unit inside the log is µM.

compoundStructure	measuredTarget	log10(IC50)
O=C1CCCc2cc(-c3ccnc(Nc4ccc(Cl)cc4)n3)ccc2N1	Aurora-B (Homo sapiens)	1.60
COc1ccc(Nc2nccc(-c3ccc4c(c3)CCCC(=O)N4)n2)cc1O	Aurora-B (Homo sapiens)	0.65
O=C1CCCc2cc(-c3ccnc(Nc4ccc(O)cc4)n3)ccc2N1	Aurora-B (Homo sapiens)	0.54
O=C1CCCc2cc(-c3ccnc(Nc4ccc(Br)cc4)n3)ccc2N1	Aurora-B (Homo sapiens)	1.26

Query: Fill in log10(IC50) for O=C1CCCc2cc(-c3ccnc(Nc4cccc(O)c4)n3)ccc2N1 tested with Aurora-B (Homo sapiens).
Reply: 0.83

---

Target: Aurora-A (Homo sapiens, UniProt O14965)
propertyMeasured: pIC50
The read-out pIC50 is expressed as -log10 of concentration in moles per litre.

Below, each entry is followed by its recorded pIC50 result.
compound	measuredTarget	reportedValue
O=C1CCCc2cc(-c3ccnc(Nc4cccc(OCCCNS(=O)(=O)N5CCC5)c4)n3)ccc2N1 [Compound 14d]	Aurora-A (Homo sapiens, UniProt O14965)	5.82
O=C1CCCc2cc(-c3ccnc(Nc4cccc(OCCCNS(=O)(=O)N5CCCC5)c4)n3)ccc2N1 [Compound 14c]	Aurora-A (Homo sapiens, UniProt O14965)	5.35

Query: // output pIC50; input O=C1CCCc2cc(-c3ccnc(Nc4ccc(Cl)cc4)n3)ccc2N1 ; system Aurora-A (Homo sapiens, UniProt O14965)
Reply: 5.03

---

VEGF-R2 (Homo sapiens) log10 of IC50 data
Sequence (P35968 20-1356): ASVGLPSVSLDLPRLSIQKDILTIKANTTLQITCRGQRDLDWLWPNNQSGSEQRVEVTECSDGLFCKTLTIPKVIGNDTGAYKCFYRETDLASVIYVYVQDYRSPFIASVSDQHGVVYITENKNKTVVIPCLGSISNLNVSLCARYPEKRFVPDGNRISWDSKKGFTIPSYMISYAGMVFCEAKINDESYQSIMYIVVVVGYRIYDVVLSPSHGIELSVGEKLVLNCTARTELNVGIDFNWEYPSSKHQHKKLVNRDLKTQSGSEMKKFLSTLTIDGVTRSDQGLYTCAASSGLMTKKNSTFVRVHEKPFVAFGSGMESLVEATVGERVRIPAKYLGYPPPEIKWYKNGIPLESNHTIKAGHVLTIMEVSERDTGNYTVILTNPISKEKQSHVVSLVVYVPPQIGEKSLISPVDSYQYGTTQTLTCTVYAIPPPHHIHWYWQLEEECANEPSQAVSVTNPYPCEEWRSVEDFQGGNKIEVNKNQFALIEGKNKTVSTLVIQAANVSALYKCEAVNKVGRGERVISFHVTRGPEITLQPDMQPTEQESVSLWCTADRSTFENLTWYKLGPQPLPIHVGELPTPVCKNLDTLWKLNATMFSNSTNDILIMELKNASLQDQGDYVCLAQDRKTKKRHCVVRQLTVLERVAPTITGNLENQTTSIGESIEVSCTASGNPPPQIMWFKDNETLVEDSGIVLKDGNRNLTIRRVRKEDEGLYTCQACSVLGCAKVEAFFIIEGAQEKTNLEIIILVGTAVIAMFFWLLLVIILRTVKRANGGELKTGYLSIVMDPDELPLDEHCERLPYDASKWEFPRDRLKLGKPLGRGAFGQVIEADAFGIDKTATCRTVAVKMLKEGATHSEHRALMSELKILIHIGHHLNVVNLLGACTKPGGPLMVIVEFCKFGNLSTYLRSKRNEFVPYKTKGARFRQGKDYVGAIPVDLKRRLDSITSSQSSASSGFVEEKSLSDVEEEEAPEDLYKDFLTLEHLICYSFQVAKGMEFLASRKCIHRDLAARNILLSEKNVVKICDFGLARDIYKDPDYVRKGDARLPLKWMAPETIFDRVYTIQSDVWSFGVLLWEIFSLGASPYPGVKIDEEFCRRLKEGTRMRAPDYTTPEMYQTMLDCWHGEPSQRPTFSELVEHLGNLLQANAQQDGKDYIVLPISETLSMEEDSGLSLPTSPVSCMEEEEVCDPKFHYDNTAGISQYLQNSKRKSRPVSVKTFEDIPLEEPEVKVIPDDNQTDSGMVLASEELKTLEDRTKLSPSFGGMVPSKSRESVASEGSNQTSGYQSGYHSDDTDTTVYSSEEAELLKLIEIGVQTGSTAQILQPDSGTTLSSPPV
Hello, just confirming the data are log10 of IC50 with units of µM.

For orientation, consider the following solved cases.
compound	log10 of IC50
O=C1CCCc2cc(-c3ccnc(Nc4ccc(Cl)cc4)n3)ccc2N1 [Compound 2f]	1.04
COc1ccc(Nc2nccc(-c3ccc4c(c3)CCCC(=O)N4)n2)cc1 [Compound 2c]	0.11
O=C1CCCc2cc(-c3ccnc(Nc4ccccc4O)n3)ccc2N1 [Compound 2j]	0.92

Query: Look up and report log10 of IC50, with VEGF-R2 (Homo sapiens) as system, for COc1ccc(Nc2nccc(-c3ccc4c(c3)CCCC(=O)N4)n2)cc1O [Compound 2n]
Reply: -0.20

Query: Lab note: record log10 of IC50 of O=C1CCCc2cc(-c3ccnc(Nc4ccc(O)cc4)n3)ccc2N1 [Compound 2e] tested on VEGF-R2 (Homo sapiens).
Reply: 0.04

Query: Using VEGF-R2 (Homo sapiens) as the test system, report measured log10 of IC50 of O=C1CCCc2cc(-c3ccnc(Nc4ccc(Br)cc4)n3)ccc2N1 [Compound 2g] .
Reply: 0.73

---

The molecules below have reported IC50 for UniProt Q96GD4.
Dear colleague, please return just the value in µM, with no unit written.

compoundStructure	IC50, µM
COc1ccc(Nc2nccc(-c3ccc4c(c3)CCCC(=O)N4)n2)cc1	18

Query: Output reported IC50 of the molecule Cc1ccc(Nc2nccc(-c3ccc4c(c3)CCCC(=O)N4)n2)cc1 on UniProt Q96GD4.
Reply: 16

---

Biological target: PAK4 (Homo sapiens, UniProt O96013)
Sequence (O96013 whole entry): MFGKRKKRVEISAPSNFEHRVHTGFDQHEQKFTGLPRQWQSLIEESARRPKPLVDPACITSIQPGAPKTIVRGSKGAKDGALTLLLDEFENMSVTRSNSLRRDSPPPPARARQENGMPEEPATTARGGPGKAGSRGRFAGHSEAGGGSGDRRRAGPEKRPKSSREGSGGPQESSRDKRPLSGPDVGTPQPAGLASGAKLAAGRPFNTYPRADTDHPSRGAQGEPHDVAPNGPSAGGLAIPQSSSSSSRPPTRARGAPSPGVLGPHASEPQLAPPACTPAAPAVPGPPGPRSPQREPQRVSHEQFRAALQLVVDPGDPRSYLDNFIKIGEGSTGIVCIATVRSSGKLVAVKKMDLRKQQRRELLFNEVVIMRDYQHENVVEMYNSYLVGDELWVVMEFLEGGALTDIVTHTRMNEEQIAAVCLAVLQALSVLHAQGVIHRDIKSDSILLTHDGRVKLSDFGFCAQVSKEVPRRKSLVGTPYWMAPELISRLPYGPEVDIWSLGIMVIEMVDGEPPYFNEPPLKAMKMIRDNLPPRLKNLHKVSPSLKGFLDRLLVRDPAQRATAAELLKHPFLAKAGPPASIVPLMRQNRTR
pIC50: −log10 of the molar value.
propertyMeasured: pIC50

Query: Specify measured pIC50 for O=C1CCCc2cc(-c3ccnc(Nc4ccccc4)n3)ccc2N1 .
Reply: < 4.00

---

Molecular target: Aurora-A (Homo sapiens)
Sequence (O14965 1-403): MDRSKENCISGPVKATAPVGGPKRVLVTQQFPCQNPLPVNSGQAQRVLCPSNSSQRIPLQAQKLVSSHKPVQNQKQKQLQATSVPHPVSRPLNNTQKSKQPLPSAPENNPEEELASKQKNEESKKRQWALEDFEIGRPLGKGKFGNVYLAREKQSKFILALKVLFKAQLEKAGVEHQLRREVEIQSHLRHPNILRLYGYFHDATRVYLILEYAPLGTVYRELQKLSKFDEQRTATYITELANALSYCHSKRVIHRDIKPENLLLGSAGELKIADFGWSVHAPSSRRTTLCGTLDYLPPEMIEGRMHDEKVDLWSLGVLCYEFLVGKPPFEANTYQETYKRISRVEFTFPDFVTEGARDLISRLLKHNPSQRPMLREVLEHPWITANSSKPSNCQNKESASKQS
Each entry below lists one item and its recorded IC50 value.
Just the number in nM, nothing appended.

compound	measuredTarget	IC50, nM
O=C1CCCc2cc(-c3ccnc(Nc4ccc(O)cc4)n3)ccc2N1	Aurora-A (Homo sapiens)	990
O=C1CCCc2cc(-c3ccnc(Nc4ccccc4)n3)ccc2N1	Aurora-A (Homo sapiens)	2400
COc1ccc(Nc2nccc(-c3ccc4c(c3)CCCC(=O)N4)n2)cc1O	Aurora-A (Homo sapiens)	1400
O=C1CCCc2cc(-c3ccnc(Nc4cccc(OCCCNS(=O)(=O)N5CCOCC5)c4)n3)ccc2N1 [Compound 14b]	Aurora-A (Homo sapiens)	3000
COc1ccc(Nc2nccc(-c3ccc4c(c3)CCCC(=O)N4)n2)cc1OCCCNS(=O)(=O)N1CCC1 [Compound 14g]	Aurora-A (Homo sapiens)	820
COc1ccc(Nc2nccc(-c3ccc4c(c3)CCCC(=O)N4)n2)cc1OCCCNS(=O)(=O)N1CCOCC1 [Compound 14f]	Aurora-A (Homo sapiens)	2500
CCOc1ccc(Nc2nccc(-c3ccc4c(c3)CCCC(=O)N4)n2)cc1	Aurora-A (Homo sapiens)	1500
COc1ccc(Nc2nccc(-c3ccc4c(c3)CCCC(=O)N4)n2)cc1OCCCN1CCN(C)S1(=O)=O [Compound 14e]	Aurora-A (Homo sapiens)	1100

Query: Specify the recorded IC50 for CN1CCN(CCCOc2cccc(Nc3nccc(-c4ccc5c(c4)CCCC(=O)N5)n3)c2)S1(=O)=O [Compound 14a] , system: Aurora-A (Homo sapiens).
Reply: 1800

Query: Give IC50 for O=C1CCCc2cc(-c3ccnc(Nc4cccc(O)c4)n3)ccc2N1 tested on Aurora-A (Homo sapiens).
Reply: 1700

---

Test: kinetic solubility by nephelometry
Assay type: physicochemical
Conditions: phosphate buffer, 25 °C, pH 7.4, aqueous buffer, kinetic from dmso stock, phosphate buffer pH 7.4, 1% DMSO, mean of two measurements, range in brackets
Reported solubility kinetic at 10 s values follow for various compounds
Give your result in µM as a bare value.

Worked set:
compound	unitName	solubility kinetic at 10 s
O=C1CCCc2cc(-c3ccnc(Nc4cccc(OCCCNS(=O)(=O)N5CCCC5)c4)n3)ccc2N1 [Compound 14c]	µM	25.3
O=C1CCCc2cc(-c3ccnc(Nc4cccc(OCCCNS(=O)(=O)N5CCOCC5)c4)n3)ccc2N1 [Compound 14b]	µM	19.6
O=C1CCCc2cc(-c3ccnc(Nc4cccc(OCCCNS(=O)(=O)N5CCC5)c4)n3)ccc2N1 [Compound 14d]	µM	25.2
COc1ccc(Nc2nccc(-c3ccc4c(c3)CCCC(=O)N4)n2)cc1OCCCN1CCN(C)S1(=O)=O [Compound 14e]	µM	21.4

Here is another compound to look at.
Query: Assign solubility kinetic at 10 s to the following record: COc1ccc(Nc2nccc(-c3ccc4c(c3)CCCC(=O)N4)n2)cc1O
Reply: 92.6

---

Molecular target: VEGF-R3 (Homo sapiens, UniProt P35916)
Sequence (P35916 25-1363): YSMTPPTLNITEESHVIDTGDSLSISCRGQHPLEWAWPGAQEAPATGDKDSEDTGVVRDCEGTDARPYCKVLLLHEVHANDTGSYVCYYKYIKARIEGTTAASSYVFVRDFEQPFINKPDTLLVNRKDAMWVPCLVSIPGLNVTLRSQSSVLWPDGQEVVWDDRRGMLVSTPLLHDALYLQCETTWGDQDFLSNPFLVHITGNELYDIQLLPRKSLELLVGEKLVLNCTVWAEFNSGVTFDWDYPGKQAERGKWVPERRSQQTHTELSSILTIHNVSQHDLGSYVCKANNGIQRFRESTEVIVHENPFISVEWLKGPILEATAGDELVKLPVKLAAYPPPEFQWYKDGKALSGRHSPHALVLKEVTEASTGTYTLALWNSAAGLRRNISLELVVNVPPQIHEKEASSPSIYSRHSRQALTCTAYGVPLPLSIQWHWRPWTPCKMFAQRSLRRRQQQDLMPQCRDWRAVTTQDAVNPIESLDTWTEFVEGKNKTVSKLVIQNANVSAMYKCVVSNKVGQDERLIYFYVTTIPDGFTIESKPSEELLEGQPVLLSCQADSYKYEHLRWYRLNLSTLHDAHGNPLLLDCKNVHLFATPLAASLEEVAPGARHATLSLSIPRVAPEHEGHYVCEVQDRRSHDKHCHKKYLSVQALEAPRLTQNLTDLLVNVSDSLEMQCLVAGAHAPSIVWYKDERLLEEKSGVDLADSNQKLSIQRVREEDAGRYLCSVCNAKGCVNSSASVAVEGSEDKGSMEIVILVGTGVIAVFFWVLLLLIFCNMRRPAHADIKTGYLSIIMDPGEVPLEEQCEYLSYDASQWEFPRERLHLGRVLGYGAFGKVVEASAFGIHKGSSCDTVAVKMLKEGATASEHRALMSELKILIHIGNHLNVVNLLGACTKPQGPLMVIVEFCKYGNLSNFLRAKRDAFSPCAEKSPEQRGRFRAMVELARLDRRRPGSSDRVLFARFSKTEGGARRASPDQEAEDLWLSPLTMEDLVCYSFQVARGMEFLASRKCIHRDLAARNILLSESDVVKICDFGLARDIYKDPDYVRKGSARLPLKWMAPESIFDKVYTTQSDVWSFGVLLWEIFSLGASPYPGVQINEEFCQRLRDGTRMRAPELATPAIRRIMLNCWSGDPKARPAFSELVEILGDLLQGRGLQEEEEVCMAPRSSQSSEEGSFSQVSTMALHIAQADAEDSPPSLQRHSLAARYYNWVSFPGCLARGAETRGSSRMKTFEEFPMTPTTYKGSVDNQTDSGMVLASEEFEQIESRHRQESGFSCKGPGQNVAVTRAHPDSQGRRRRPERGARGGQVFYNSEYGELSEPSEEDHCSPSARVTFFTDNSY
propertyMeasured: log10(IC50) (log10 of the value in µM)
// do not treat as linear: log10 of IC50, unit µM

Past entries and their recorded results:
molecule	log10(IC50)
O=C1CCCc2cc(-c3ccnc(Nc4ccccc4)n3)ccc2N1 [Compound 2a]	0.77
O=C1CCCc2cc(-c3ccnc(Nc4cccc(O)c4)n3)ccc2N1 [Compound 2m]	-0.27
O=C1CCCc2cc(-c3ccnc(Nc4ccc([N+](=O)[O-])cc4)n3)ccc2N1 [Compound 2i]	1.54

Query: Look up and report log10(IC50), with VEGF-R3 (Homo sapiens, UniProt P35916) as system, for O=C1CCCc2cc(-c3ccnc(Nc4ccccc4O)n3)ccc2N1 [Compound 2j]
Reply: 1.28

Query: Tell me log10(IC50) of O=C1CCCc2cc(-c3ccnc(Nc4ccc(O)cc4)n3)ccc2N1 [Compound 2e] when tested on VEGF-R3 (Homo sapiens, UniProt P35916).
Reply: 0.18

Query: Check VEGF-R3 (Homo sapiens, UniProt P35916) data and give log10(IC50) for Cc1ccc(Nc2nccc(-c3ccc4c(c3)CCCC(=O)N4)n2)cc1 [Compound 2b] .
Reply: 0.63

Query: Write down measured log10(IC50) (VEGF-R3 (Homo sapiens, UniProt P35916)) for this molecule. O=C1CCCc2cc(-c3ccnc(Nc4ccc(Br)cc4)n3)ccc2N1 [Compound 2g]
Reply: 0.61

Query: Tell me its log10(IC50) on VEGF-R3 (Homo sapiens, UniProt P35916): O=C1CCCc2cc(-c3ccnc(Nc4ccc(I)cc4)n3)ccc2N1 [Compound 2h]
Reply: 0.79

Query: Fill in: log10(IC50) on VEGF-R3 (Homo sapiens, UniProt P35916), entry CCOc1ccc(Nc2nccc(-c3ccc4c(c3)CCCC(=O)N4)n2)cc1 [Compound 2d]
Reply: 0.48

Query: Enter measured log10(IC50), system VEGF-R3 (Homo sapiens, UniProt P35916), for the molecule shown: COc1ccc(Nc2nccc(-c3ccc4c(c3)CCCC(=O)N4)n2)cc1O [Compound 2n]
Reply: -0.26
